// Voltage-gated inwardly rectifying potassium channel KCNH2 (Homo sapiens) IC50 records

[
  {
    "compound": "CC(=O)Nc1cc(Nc2cc(NC3COC3)n3ncc(C#N)c3n2)c(F)cc1C1CC1",
    "target": "Voltage-gated inwardly rectifying potassium channel KCNH2 (Homo sapiens)",
    "IC50": "> 33 µM"
  },
  {
    "compound": "CC(=O)Nc1cc(Nc2cc(NC3CC3)n3ncc(C#N)c3n2)c(F)cc1C",
    "target": "Voltage-gated inwardly rectifying potassium channel KCNH2 (Homo sapiens)",
    "IC50": "16 µM"
  }
]

Given CC(=O)Nc1cc(Nc2cc(NC3CC3)n3ncc(C#N)c3n2)ccc1Cl , state its recorded IC50. > 33 µM

Please report the recorded IC50 for CC(=O)Nc1cc(Nc2cc(NC3COC3)n3ncc(C#N)c3n2)ccc1C . > 33 µM

---

test: physchem; settings: octanol/water, pH 7.4
# if measured logD at 5 h < 2: T  # else: F

[
  {
    "compound": "CC(=O)Nc1cc(Nc2cc(NC3COC3)n3ncc(C#N)c3n2)ccc1C1CC1",
    "groupLabel": "F"
  },
  {
    "compound": "CC(=O)Nc1cc(Nc2cc(Nc3ccn(CCO)n3)n3ncc(C#N)c3n2)ccc1C",
    "groupLabel": "T"
  },
  {
    "compound": "CC(=O)Nc1cc(Nc2cc(Nc3cn(CCN4CCCC4)cn3)n3ncc(C#N)c3n2)ccc1C",
    "groupLabel": "T"
  }
]

A record lists CC(=O)Nc1cc(Nc2cc(NC3CC3)n3ncc(C#N)c3n2)ccc1Cl . Is its logD at 5 h below 2? F

State whether 2 exceeds logD at 5 h recorded for CC(=O)Nc1cc(Nc2cc(Nc3ccn(CCN4CCCC4)n3)n3ncc(C#N)c3n2)ccc1C . F

Please check: logD at 5 h for CC(=O)Nc1cc(Nc2cc(NC3CC3)n3ncc(C#N)c3n2)ccc1C(C)C , strictly under 2 or not? F

Determine if CC(=O)Nc1cc(Nc2cc(NC3CC3)n3ncc(C#N)c3n2)cnc1C shows logD at 5 h strictly lower than 2. F

Dear reviewer, please state whether CC(=O)Nc1cc(Nc2cc(Nc3ccn(CCN4CCOCC4)n3)n3ncc(C#N)c3n2)ccc1C has logD at 5 h strictly beneath 2. T

State whether 2 exceeds logD at 5 h recorded for CC(=O)Nc1cc(Nc2cc(Nc3cn(C)cn3)n3ncc(C#N)c3n2)ccc1C . T

I wonder whether CC(=O)Nc1cc(Nc2cc(Nc3ccn(C)n3)n3ncc(C#N)c3n2)ccc1C has logD at 5 h below 2. Can you tell? F

---

In this section, each of the molecules is paired with its reported IC50.
molecular target: Casein kinase II subunit alpha (Homo sapiens, UniProt P68400); test: Inhibition of N-terminal His6X-tagged recombinant human full length casein kinase-2alpha expressed in SF21 cells using BODIPY-FL-RRRDDDSDDD-CONH2 as substrate preincubated for 20 mins measured after 90 mins by mobility shift assay
Sequence (P68400 whole entry): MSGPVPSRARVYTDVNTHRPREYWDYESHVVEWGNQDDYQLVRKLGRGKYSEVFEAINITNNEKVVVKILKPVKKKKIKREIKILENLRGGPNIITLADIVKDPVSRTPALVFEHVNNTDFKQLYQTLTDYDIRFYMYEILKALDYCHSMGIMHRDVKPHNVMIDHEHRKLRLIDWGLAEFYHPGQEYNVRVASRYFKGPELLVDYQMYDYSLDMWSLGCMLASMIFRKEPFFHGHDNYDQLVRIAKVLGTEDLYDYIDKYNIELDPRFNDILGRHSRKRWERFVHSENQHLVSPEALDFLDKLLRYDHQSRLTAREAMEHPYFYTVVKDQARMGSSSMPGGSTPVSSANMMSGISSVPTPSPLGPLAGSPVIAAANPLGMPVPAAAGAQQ

[
  {
    "compound": "CC(=O)Nc1cc(Nc2cc(Nc3ccn(CCN(C)C)n3)n3ncc(C#N)c3n2)ccc1C",
    "IC50": "< 3 nM"
  },
  {
    "compound": "CC(=O)Nc1cc(Nc2cc(Nc3ccn(CCN4CCOCC4)n3)n3ncc(C#N)c3n2)ccc1C",
    "IC50": "< 3 nM"
  },
  {
    "compound": "CC(=O)N(C)c1ccc2ccn(-c3cc(NC4CC4)n4ncc(C#N)c4n3)c2c1",
    "IC50": "10 nM"
  },
  {
    "compound": "CC(=O)Nc1cc(Nc2cc(Nc3cn(CCN(C)C)cn3)n3ncc(C#N)c3n2)ccc1C",
    "IC50": "< 3 nM"
  }
]

Query molecule follows.
# IC50 lookup, item CC(=O)Nc1cc(Nc2cc(NC3COC3)n3ncc(C#N)c3n2)c(F)cc1C1CC1 < 3 nM
